System: Mus musculus
protocol notes: In vivo analgesic dose in mouse tail flick latency model
Format: functional
recorded metric: log10 of ED50 (log10 of the value in µmol/kg)

molecule: CCCCCCCCC(=O)NCc1ccc(O)c(OC)c1 [NONIVAMIDE]
recorded result: 0.70
--
molecule: CCCCCCCCNC(=O)Cc1ccc(O)c(OC)c1
recorded result: 0.96
--
molecule: CCCCCCCC/N=C(\S)NCc1ccc(O)c(OC)c1
recorded result: 0.51
--
molecule: CCCCCCCC/C(S)=N\Cc1ccc(O)c(OC)c1
recorded result: 1.58
--
molecule: COc1cc(CNC(=O)CCCC/C=C/C(C)C)ccc1O
recorded result: 1.18

====

Quick list: EC50 per entry.
study system: Vanilloid receptor (Rattus norvegicus, UniProt Q9ERZ8+Q9WUD2+O35433)
protocol notes: Effective concentration for [Ca2+] uptake into dorsal root ganglia neurones in rat cultured spinal sensory neurones
Type: functional
recorded metric: EC50 (µM)

compound: CCCCCCCCNC(=O)Cc1ccc(O)c(OC)c1
value operator: =
recorded result: 0.3
//
compound: CCCCCCCC/N=C(/S)N(C)Cc1ccc(O)c(OC)c1
value operator: >
recorded result: 100
//
compound: CCCCCCCCN/C(NCc1ccc(O)c(OC)c1)=[S+]\C.[I-]
value operator: >
recorded result: 100
//
compound: CCCCCCCCC(=O)N(C)Cc1ccc(O)c(OC)c1
value operator: >
recorded result: 100
//
compound: CCCCCCCCC(=O)/C=C/c1ccc(O)c(OC)c1
value operator: >
recorded result: 100
//
compound: CCCCCCCC/N=C(/S)Nc1ccc(O)c(OC)c1
value operator: =
recorded result: 2.57
//
compound: CCCCCCCCN/C(=C\[N+](=O)[O-])NCc1ccc(O)c(OC)c1
value operator: >
recorded result: 100
//
compound: CCCCCCCCNC(=O)/C=C/c1ccc(O)c(OC)c1
value operator: >
recorded result: 100
//
compound: CCCCCCCCNC(=O)/C=C\c1ccc(O)c(OC)c1
value operator: =
recorded result: 17.9
//
compound: CCCCCCCCN(C)C(=O)Cc1ccc(O)c(OC)c1
value operator: =
recorded result: 6.29
//
compound: CCCCCCCCCCCc1ccc(O)c(OC)c1
value operator: >
recorded result: 100
//
compound: CCCCCCCCC(=O)Nc1ccc(O)c(OC)c1
value operator: =
recorded result: 4.48
//
compound: CCCCCCCCNC(=O)NCc1ccc(O)c(OC)c1
value operator: =
recorded result: 0.36
//
compound: CCCCCCCCOC(=O)Cc1ccc(O)c(OC)c1
value operator: =
recorded result: 0.67
//
compound: CCCCCCCCS(=O)(=O)NCc1ccc(O)c(OC)c1
value operator: =
recorded result: 1.32
//
compound: CCCCCCCC/C(S)=N\Cc1ccc(O)c(OC)c1
value operator: =
recorded result: 0.28
//
compound: CCCCCCCCN(C)/C(S)=N/Cc1ccc(O)c(OC)c1
value operator: =
recorded result: 0.53
//
compound: CCCCCCCC/N=C(/NC#N)NCc1ccc(O)c(OC)c1
value operator: =
recorded result: 3.28
//
compound: CCCCCCCCC(=O)OCc1ccc(O)c(OC)c1
value operator: =
recorded result: 14.2
//
compound: CCCCCCCCC(=O)NC(=S)NCc1ccc(O)c(OC)c1
value operator: >
recorded result: 100
//
compound: CCCCCCCCSC(=O)Cc1ccc(O)c(OC)c1
value operator: =
recorded result: 1.17
//
compound: CCCCCCCCNC(=O)CCc1ccc(O)c(OC)c1
value operator: =
recorded result: 2.32
//
compound: CCCCCCCCC(=O)CCc1ccc(O)c(OC)c1
value operator: =
recorded result: 2.13
//
compound: CCCCCCCCC(=O)NCCc1ccc(O)c(OC)c1
value operator: =
recorded result: 18.3
//
compound: CCCCCCCCNC(=O)c1ccc(O)c(OC)c1
value operator: >
recorded result: 100
//
compound: CCCCCCCCCC(=O)Cc1ccc(O)c(OC)c1
value operator: =
recorded result: 3.78
//
compound: CCCCCCCCNC(=O)C(O)c1ccc(O)c(OC)c1 (configuration not stated)
value operator: =
recorded result: 1.16

Value source: ChEMBL document CHEMBL1127069
